Provenance of the data: patent US12581252B2

pIC50 values by entry
Molecular target: H1047R PIK3CA enzyme (Homo sapiens, UniProt P42336, H1047R)
Sequence (P42336 whole entry H1047R): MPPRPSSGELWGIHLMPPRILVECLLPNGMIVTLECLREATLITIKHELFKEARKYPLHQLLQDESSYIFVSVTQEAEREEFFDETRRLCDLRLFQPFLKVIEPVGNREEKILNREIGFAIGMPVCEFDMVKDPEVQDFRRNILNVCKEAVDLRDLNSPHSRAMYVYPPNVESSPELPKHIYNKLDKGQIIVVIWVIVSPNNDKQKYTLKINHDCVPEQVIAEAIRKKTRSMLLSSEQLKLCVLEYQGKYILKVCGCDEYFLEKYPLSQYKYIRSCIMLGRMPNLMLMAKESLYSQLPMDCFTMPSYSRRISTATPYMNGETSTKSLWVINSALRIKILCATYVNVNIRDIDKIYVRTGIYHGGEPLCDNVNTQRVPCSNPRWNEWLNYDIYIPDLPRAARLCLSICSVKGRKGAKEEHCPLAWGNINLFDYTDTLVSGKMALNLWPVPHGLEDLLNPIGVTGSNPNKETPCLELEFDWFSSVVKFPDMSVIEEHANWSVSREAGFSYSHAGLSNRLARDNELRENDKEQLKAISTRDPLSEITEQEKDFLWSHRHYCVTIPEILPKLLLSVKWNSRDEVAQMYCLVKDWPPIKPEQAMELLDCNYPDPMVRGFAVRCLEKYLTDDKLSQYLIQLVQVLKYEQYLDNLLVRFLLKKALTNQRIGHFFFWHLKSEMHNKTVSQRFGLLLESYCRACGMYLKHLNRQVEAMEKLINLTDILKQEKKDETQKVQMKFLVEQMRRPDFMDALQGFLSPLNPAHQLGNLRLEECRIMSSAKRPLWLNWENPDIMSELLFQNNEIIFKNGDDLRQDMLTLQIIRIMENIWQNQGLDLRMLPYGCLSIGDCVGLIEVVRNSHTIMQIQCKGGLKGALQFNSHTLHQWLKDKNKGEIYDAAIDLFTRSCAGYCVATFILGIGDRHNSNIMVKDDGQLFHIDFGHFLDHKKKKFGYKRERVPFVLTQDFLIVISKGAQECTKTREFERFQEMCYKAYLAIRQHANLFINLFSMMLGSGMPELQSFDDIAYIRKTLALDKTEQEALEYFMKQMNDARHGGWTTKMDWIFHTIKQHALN
Sequence (P27986 whole entry partner): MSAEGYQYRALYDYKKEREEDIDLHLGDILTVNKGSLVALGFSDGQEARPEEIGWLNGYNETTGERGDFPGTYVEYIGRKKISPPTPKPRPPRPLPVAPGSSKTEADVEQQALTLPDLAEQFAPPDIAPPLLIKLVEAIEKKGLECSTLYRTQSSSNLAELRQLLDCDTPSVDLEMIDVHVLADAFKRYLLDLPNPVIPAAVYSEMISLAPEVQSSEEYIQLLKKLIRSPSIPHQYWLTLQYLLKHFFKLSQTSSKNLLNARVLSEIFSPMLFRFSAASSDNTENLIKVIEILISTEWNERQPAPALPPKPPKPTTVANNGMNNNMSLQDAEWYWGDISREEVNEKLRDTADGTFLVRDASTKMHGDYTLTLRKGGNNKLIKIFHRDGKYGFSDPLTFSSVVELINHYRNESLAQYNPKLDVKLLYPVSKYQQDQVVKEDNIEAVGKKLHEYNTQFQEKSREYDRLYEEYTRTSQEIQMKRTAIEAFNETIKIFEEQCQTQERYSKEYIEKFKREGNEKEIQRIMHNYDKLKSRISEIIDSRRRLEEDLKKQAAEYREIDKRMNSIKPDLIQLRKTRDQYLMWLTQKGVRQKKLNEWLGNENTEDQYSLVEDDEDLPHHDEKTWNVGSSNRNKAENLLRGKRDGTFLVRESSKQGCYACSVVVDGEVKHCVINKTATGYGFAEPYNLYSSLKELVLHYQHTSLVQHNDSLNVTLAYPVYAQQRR
Assay: ADP-Glo Biochemical PIK3CA Kinase Assay
pIC50: −log10 of the molar value.

molecule	pIC50
O=C(Nc1cc(Br)cc2c1C(c1cc(F)cc(F)c1)NC2=O)c1cc(F)cc(F)c1 (centres unmarked) [Compound I-2156]	5.00 to 6.00
Cc1ccccc1[C@@H]1NC(=O)c2nccc(NC(=O)N3C[C@@H](C)c4ccccc43)c21 (single isomer, unassigned) [Compound I-303]	4.00 to 5.00
COCc1cc(NC(=O)N2C[C@@](O)(C(F)(F)F)c3cc(F)ccc32)c2c(c1)C(=O)N[C@H]2c1cc(F)ccc1Cl (single isomer, unassigned) [Compound I-2543]	5.00 to 6.00
O=C1N[C@@H](c2cc(F)ccc2Cl)c2c(NC(=O)N3C[C@H](O)c4cc(F)ccc43)cc(-n3nccn3)cc21 (single isomer, unassigned) [Compound I-2342]	6.30 to 7.00
O=C1NC(c2cc(F)ccc2Cl)c2c(NC(=O)C3CCCC(O)C3)cc(-c3ccc4ncnn4c3)cc21 (centres unmarked) [Compound I-1723]	4.00 to 5.00
O=C(Nc1ccnc2c1C(c1ccccc1Cl)NC2=O)c1cc(F)cc(OC(F)(F)F)c1 (centres unmarked) [Compound I-234]	5.00 to 6.00
O=C(Nc1cc(-c2ccc3ncnn3c2)cc2c1[C@@H](c1cc(F)c(F)cc1Cl)NC2=O)c1cc(F)cc(C(F)(F)F)c1 [Compound I-1061]	≥ 7.00
Cc1ccc(F)cc1[C@@H]1NC(=O)c2cc(Br)cc(NC(=O)c3cc(F)cc(C(F)(F)F)c3)c21 [Compound I-758]	≥ 7.00
O=C(Nc1cc(-c2cnn3ncnc3c2)cc2c1C(c1cc(F)ccc1Cl)NC2=O)c1cc(F)cc(C(F)(F)F)c1 (centres unmarked) [Compound I-1824]	≥ 7.00
COc1cc(C)c(C(=O)Nc2cc(Br)cc3c2C(c2cc(F)ccc2Cl)NC3=O)cn1 (centres unmarked) [Compound I-850]	4.00 to 5.00
COc1cncc(-c2cc(NC(=O)c3cc(F)cc(C(F)(F)F)c3)c3c(c2)C(=O)NC3c2cc(F)ccc2Cl)c1 (centres unmarked) [Compound I-854]	≥ 7.00

----------
Molecular target: H1047R PIK3CA enzyme (Homo sapiens, UniProt P42336, H1047R)
Assay: ADP-Glo Biochemical PIK3CA Kinase Assay
IC50 values by entry
measured_parameter: IC50

> print(dat)
                                   compound     recorded.result
1  [2H][C@]1(c2cc(F)ccc2Cl)NC(=O)c2cc(-c3ccc4ncnn4c3)cc(NC(=O)c3cc(F)cc(C(F)(F)F)c3)c21 (single isomer, unassigned)            ≤ 100 nM
2  Cc1ccccc1C1NC(=O)c2cccc(NC(=O)c3nsc4ccccc34)c21 (stereo not shown)       100 to 500 nM
3  CC(=O)N1CCCCC1C1NC(=O)c2cccc(NC(=O)c3cc(F)cc(C(F)(F)F)c3)c21 (stereo not shown)  10000 to 100000 nM
4  Cc1ccccc1C1NC(=O)c2cccc(NC(=O)c3coc4c(F)cc(Cl)cc34)c21 (stereo not shown)            ≤ 100 nM
5  O=C1NC(c2cc(F)ccc2Cl)c2c(NC(=O)N3CCc4ccc(OC(F)(F)F)cc43)cccc21 (stereo not shown)    1000 to 10000 nM
6  O=C1N[C@H](c2cc(F)ccc2Cl)c2c(NC(=O)N3C[C@H](O)c4cccc(F)c43)cccc21 (single isomer, unassigned)    1000 to 10000 nM
7  O=C1NC(c2cc(F)ccc2Cl)c2c(NC(=O)N3CCC(F)(F)C3)cc(Br)cc21 (stereo not shown)    1000 to 10000 nM

----------
Biological target: H1047R PIK3CA enzyme (Homo sapiens, UniProt P42336, H1047R)
Experiment: ADP-Glo Biochemical PIK3CA Kinase Assay
measured_parameter: IC50

> print(dat)
                                   compound  measured.parameter  recorded.result
1  O=C1N[C@@H](c2cc(F)ccc2Cl)c2c(NC(=O)[C@H]3CCCCN3)cc(-c3ccc4ncnn4c3)cc21 [Compound I-2147]                IC50     10 to 100 µM
2  Cc1ccccc1[C@H]1NC(=O)c2c(C#N)ccc(NC(=O)c3cc(F)cc(C(F)(F)F)c3)c21                IC50    0.1 to 0.5 µM
3  O=C(Nc1cc(Br)cc2c1C(c1cc(F)ccc1Cl)NC2=O)c1ccc(C(F)(F)F)s1 (stereo not drawn)                IC50       1 to 10 µM
4  COc1ccc(F)cc1C(=O)Nc1cc(Br)cc2c1C(c1cc(F)ccc1Cl)NC2=O (stereo not drawn)                IC50       1 to 10 µM
5  O=C1N[C@@H](c2cc(F)ccc2Cl)c2c(NC(=O)N3C[C@@](O)(C(F)(F)F)c4cc(F)ccc43)cc(N3CCOC3=O)cc21 (single isomer, unassigned)                IC50       1 to 10 µM
6  O=C(Nc1cc(N[C@H]2C[C@@H](F)C2)cc2c1C(c1cc(F)ccc1Cl)NC2=O)c1cc(F)cc(C(F)(F)F)c1 (single isomer, unassigned)                IC50         ≤ 0.1 µM
7  CC([C@H]1C[C@@H](O)CN1C(=O)Nc1cccc2c1C(c1cc(F)ccc1Cl)NC2=O)C(F)(F)F (single isomer, unassigned)                IC50     10 to 100 µM
8  Cc1cc(=O)[nH]cc1C(=O)Nc1cc(Br)cc2c1C(c1cc(F)ccc1Cl)NC2=O (stereo not drawn)                IC50     10 to 100 µM
9  Cc1ccccc1C1NC(=O)c2cccc(NC(=O)C34CCC(CC3)CC4)c21 (stereo not drawn)                IC50       1 to 10 µM
